# Percent of the androgen receptor remaining values compiled below
Biological target: androgen receptor (Homo sapiens, UniProt P10275, T878A)
Construct: endogenous in cells; host or cells: LNCaP human prostate cancer cells
Sequence (P10275 whole entry T878A): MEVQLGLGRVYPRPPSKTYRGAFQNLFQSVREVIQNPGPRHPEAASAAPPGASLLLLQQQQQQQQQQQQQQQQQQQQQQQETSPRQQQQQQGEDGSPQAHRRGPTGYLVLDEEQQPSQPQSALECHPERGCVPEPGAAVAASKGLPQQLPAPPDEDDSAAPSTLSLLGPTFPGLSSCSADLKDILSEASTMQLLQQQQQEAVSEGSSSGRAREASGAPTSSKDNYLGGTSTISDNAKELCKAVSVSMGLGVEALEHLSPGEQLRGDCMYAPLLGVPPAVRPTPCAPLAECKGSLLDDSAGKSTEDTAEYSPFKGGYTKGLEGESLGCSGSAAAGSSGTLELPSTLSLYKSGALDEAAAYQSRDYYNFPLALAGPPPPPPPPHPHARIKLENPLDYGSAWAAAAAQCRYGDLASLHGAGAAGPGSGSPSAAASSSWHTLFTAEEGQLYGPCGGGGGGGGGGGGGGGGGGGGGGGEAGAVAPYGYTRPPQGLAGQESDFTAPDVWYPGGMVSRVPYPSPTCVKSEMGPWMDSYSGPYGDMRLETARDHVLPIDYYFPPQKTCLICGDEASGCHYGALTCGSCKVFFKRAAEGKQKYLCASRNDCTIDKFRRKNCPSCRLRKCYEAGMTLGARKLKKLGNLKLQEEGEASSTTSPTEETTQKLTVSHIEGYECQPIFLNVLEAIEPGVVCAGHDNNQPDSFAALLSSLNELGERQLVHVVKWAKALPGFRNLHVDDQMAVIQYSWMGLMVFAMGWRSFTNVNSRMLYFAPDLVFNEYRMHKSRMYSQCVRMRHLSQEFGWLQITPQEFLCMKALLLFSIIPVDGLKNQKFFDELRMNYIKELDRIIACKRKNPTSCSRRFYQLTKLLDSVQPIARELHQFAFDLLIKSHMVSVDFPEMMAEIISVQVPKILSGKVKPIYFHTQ
Assay: Androgen receptor remaining in LNCaP cell lysate, Western Blot
Type: cell-based
Details: LNCaP, 3μ Molar conc., 48 hours
Quick reminder: number only, in %, skip the unit.

// below: answered compounds
>  <COMPOUND>
CC(O)(CNC(=S)Nc1ccc(Br)cc1)C(=O)Nc1ccc([N+](=O)[O-])c(C(F)(F)F)c1 (stereo not drawn)

>  <REPORTED RESULT>
73

$$$$
>  <COMPOUND>
CC(O)(CNCC(C)(O)C(=O)Nc1ccc([N+](=O)[O-])c(C(F)(F)F)c1)C(=O)Nc1ccc([N+](=O)[O-])c(C(F)(F)F)c1 (stereo not drawn)

>  <REPORTED RESULT>
74

$$$$

q: Which Percent of the androgen receptor remaining is reported for this compound? CC(O)(CNC(=O)Nc1ccc(I)cc1)C(=O)Nc1ccc([N+](=O)[O-])c(C(F)(F)F)c1 (stereo not drawn)
a: 28
